settings: human gut metagenome, 24 h, 2 µM; also: call rule not given here
readout.kind: Bacterial Biotransformation

Examples with answers:
CCN(CC)C(C)CN1c2ccccc2Sc2ccccc21 (stereo not drawn); Compound metabolized
CC(=O)OCC(=O)[C@@]1(O)[C@@H](C)C[C@H]2[C@@H]3CCC4=CC(=O)C=C[C@]4(C)[C@@]3(F)[C@@H](O)C[C@@]21C [BETAMETHASONE ACETATE]; Compound metabolized
CCCC(=O)Nc1ccc(OCC(O)CNC(C)C)c(C(C)=O)c1 (stereo not drawn); Compound NOT metabolized
CCc1nc(N)nc(N)c1-c1ccc(Cl)cc1; Compound NOT metabolized
COc1ccccc1OCC(O)COC(N)=O (stereo not drawn); Compound NOT metabolized
CC(C)c1nc(CN(C)C(=O)N[C@H](C(=O)N[C@@H](Cc2ccccc2)C[C@H](O)[C@H](Cc2ccccc2)NC(=O)OCc2cncs2)C(C)C)cs1; Compound NOT metabolized

Documented Bacterial Biotransformation of "C#C[C@]1(O)CC[C@H]2[C@@H]3CCC4=CC(=O)CC[C@@H]4[C@H]3CC[C@@]21CC" : Compound metabolized

// field: Bacterial Biotransformation; key: CC(CN(C)C)CN1c2ccccc2CCc2ccccc21.O=C(O)/C=C\C(=O)O (stereo not drawn) [TRIMIPRAMINE MALEATE] ; value = Compound NOT metabolized
